assay: NCI Yeast Anticancer Drug Screen. Data for the cln2 rad14 strain (AID 165);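 further: 0% = growth equal to vehicle treated cultures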; conditions: S. cerevisiae cln2 rad14 strain, at 50.0 µM
The panel holds about 79,000 compounds, 15% with a hit somewhere; the sample as a whole holds those more often. The source made the active and inactive calls. No stated cut-off is given here; in the data, active means growth inhibition above about 70%; inactive means the rest.
Outcome (select one): 1 for active, -1 for inactive

Recorded results for 3 molecules are shown here.
Ask: Hi, sorry to bother you, what did the test record for "COC(=O)C1c2cc(C)ccc2-c2ccc(C)cc21" ?
Reply: -1

Ask: Do the same for "CCN(CC)CCCCSc1ccc([N+](=O)[O-])cc1[N+](=O)[O-]" please
Reply: -1

Ask: Do the same for "O=c1c(-c2ccccc2)c(-c2ccccc2)c1=O" please
Reply: 1

Further cases:
Ask: Hi, sorry to bother you, what did the test record for CC1(c2ccc(F)cc2)OC(=O)c2c1ccc1ccccc21 (configuration not stated) ?
Reply: -1

Ask: Do the same for "c1ccc2c3ccn4ccc5c6ccccc6[nH]c5c4c-3nc2c1" please
Reply: -1

Ask: Do the same for "Cc1ccc(C2(O)CCN(Cc3ccccc3)CC2)cc1" please
Reply: -1

Ask: Do the same for "O=CCCCc1cc2c(cc1Br)CCC2" please
Reply: 1
